src = PubChem BioAssay

test: budding yeast growth modifiers under rapamycin – strain BY4716, OD600, 96 h, primary screen (AID 1091); also: test concentration not given here; conditions: S. cerevisiae BY4716 + rapamycin, higher = more signal, called active from +8 up or from −8 down
property.label: z-score

- CCCCCCCCCCC(O)C1C=CC2C(=O)NC(=O)C2N1Nc1ccccn1 (centres undefined): -2.6
- CCCCCCC#C[Si](O[C@H](c1ccccc1)c1cn(Cc2cccc(Cl)c2)nn1)(C(C)C)C(C)C: -0.162
- COCCOC(=O)N1C(=O)[C@@]2(c3cc(C#CCCO)ccc31)[C@H](C(=O)N1CCc3cc(OC)c(OC)cc3C1)[C@H]1C(=O)O[C@H](c3ccccc3)[C@H](c3ccccc3)N1[C@@H]2c1ccc(OCCO)cc1: 2.59
- OCc1ccc(-c2cc[n+](Cc3cccc(OC(F)(F)F)c3)cc2)cc1: 5.75
